# system.under.test: T1, human 5T4ECDHis (mature protein of SEQ ID NO: 99) (human, UniProt Q13641 32-355)
# T1 construct: ECD of human 5T4 (aa 1-355 of Uniprot Q13641) with C-terminal His tag; residues 1-31 are the signal peptide; also called ECD of human 5T4 with a C-terminal His tag
# T1 sequence: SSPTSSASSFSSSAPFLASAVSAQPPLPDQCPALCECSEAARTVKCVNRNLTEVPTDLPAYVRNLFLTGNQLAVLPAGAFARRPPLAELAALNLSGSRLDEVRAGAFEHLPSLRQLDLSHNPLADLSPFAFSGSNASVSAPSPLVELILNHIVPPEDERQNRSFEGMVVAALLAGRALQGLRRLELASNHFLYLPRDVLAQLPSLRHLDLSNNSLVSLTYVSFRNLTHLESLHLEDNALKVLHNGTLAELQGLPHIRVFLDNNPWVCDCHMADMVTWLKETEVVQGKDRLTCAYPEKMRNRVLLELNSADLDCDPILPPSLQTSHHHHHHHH
# test.protocol: BLI cross-block; competitor (immobilised): IgG1-5T4-127-FEAR

binder: IgG1-5T4-226-FEAR (antibody, V domains shown, Monospecific, bivalent human IgG1 kappa with L234F, L235E, D265A, K409R (FEAR); also called IgG1-5T4-226-FEAR-FITC) VH: QVQLQQWGAGLLKPSETLSLTCAVYGGSFSGYYWSWIRQPPGKGLEWIGEIDHSGSTNYNPSLKSRVTISVDTSKNQFSLKLSSVTAADTAVYYCAAWFGELWDYYYGMDVWGQGTTVTVSS VL: EIVLTQSPATLSLSPGERATLSCRASQSVSSFLAWYQQKPGQAPRLLIYDASNRATGIPARFSGSGSGTDFTLTISSLEPEDFAVYYCQQRSNWPLTFGQGTRLEIK
corrected association response [nm]: 0.16

binder: IgG1-5T4-085-FEAR (antibody, V domains shown, Monospecific, bivalent human IgG1 kappa with L234F, L235E, D265A, K409R (FEAR)) VH: EVQLLESGGGLVQPGGSLRLSCAASGFTFSSYAMSWVRQAPGKGLEWVSAISGSGGSTYNADSVKGRFTIFRDNSKNTLYLHMNSLRAEDTAVYYCARDPGYNNVEYLDHWGQGTLVTVSS VL: AIQLTQSPSSLSASVGDRVTITCRASQGISSALAWYQQKPGKAPKLLIYDASSLESGVPSRFSGSGSGTDFTLTISSLQPEDFATYYCQQFNSYPLTFGGGTKVEIK
corrected association response [nm]: -0.01

binder: IgG1-5T4-H8-FEAR (antibody, V domains shown, Based on 5T4 antibody H8 from Wyeth (WO 2007/106744); IgG1 with L234F, L235E, D265A, K409R (FEAR); also called IgG1-5T4-HS-FEAR; IgG1-5T4-H8-FEAR-FITC) VH: EVQLQQSGPDLVKPGASVKISCKASGYSFTGYYMHWVKQSHGKSLEWIGRINPNNGVTLYNQKFKDKAILTVDKSSTTAYMELRSLTSEDSAVYYCARSTMITNYVMDYWGQVTSVTVSS VL: SIVMTQTPTFLLVSAGDRVTITCKASQSVSNDVAWYQQKPGQSPTLLISYTSSRYAGVPDRFIGSGYGTDFTFTISTLQAEDLAVYFCQQDYNSPPTFGGGTKLEIK
corrected association response [nm]: -0.02
